target: δ-opioid receptor (Homo sapiens); test: Calcium mobilisation assay, CHO cells with GαqG66Di5; assay type: cell-based; set-up: expressed in transfected cells; host or cells: CHO cells; gift from Prof; Girolamo Calo, University of Padova; conditions: intrinsic activity, Emax ratio to DPDPE; Inactive = inactive as an agonist up to 1 µM
Sequence (P41143 whole entry): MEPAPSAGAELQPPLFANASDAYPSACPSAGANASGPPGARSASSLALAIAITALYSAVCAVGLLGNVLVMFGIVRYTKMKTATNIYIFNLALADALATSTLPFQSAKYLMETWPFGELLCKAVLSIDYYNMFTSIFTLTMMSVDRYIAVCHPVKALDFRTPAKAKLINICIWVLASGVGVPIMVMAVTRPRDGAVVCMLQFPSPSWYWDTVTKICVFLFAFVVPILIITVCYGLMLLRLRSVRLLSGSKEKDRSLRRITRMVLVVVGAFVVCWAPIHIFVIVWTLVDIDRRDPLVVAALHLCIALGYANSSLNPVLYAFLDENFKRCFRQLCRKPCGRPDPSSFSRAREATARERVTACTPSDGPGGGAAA
Numbered stars: 1 amine (or outer) side, 2 acyl side, 3 side chain; on linkers, the order of the positions; unused ones are H or OH. Square brackets hold non-standard residues; d marks the D form. Peptide text beside a SMILES is read from it. Nip(3R) = O=C([C@@H]1CCCN([*:1])C1)[*:2]; Dmt = Cc1cc(O)cc(C)c1C[C@H](N)C(=O)O
readoutKind: δ-opioid receptors α ± SEM

{"molecule": "Cc1cc(O)cc(C)c1C[C@H](N)C(=O)N1CCC[C@@H](C(=O)N[C@@H](CC(C)C)C(=O)N[C@@H](CC(=O)O)C(=O)N[C@@H](CC(C)C)C(=O)N[C@@H](Cc2ccccc2)C(=O)O)C1 [analog 4, Dmt-(R)-Nip-Leu-Asp-Leu-Phe-OH] (H-[Dmt][Nip(3R)]LDLF-OH)", "valueReported": "Inactive"}
{"molecule": "CC(C)C[C@H](NC(=O)[C@@H]1CCCN(C(=O)[C@@H](N)Cc2ccc(O)cc2)C1)C(=O)N[C@@H](CC(=O)O)C(=O)N[C@@H](CC(C)C)C(=O)N[C@@H](Cc1ccccc1)C(=O)O [analog 2, Tyr-(R)-Nip-Leu-Asp-Leu-Phe-OH] (H-Y[Nip(3R)]LDLF-OH)", "valueReported": "Inactive"}
